experimental-details: qHTS of pediatric cancer cell lines to identify multiple opportunities for drug repurposing: Primary screen for NB-EBc1 cells (AID 1347095)
stated-conditions: NB-EBc1 neuroblastoma viability, CellTiter-Glo luminescence, 48 h; series mostly up to 46 µM
Inconclusive results are not listed. Calls of active or inactive are those of the source. Calls come from the whole dose curve; as a rule, active = well fitted cell-killing curve with a large enough effect; inconclusive = small, poorly fitted or top-dose-only effect; inactive = no such curve, though single readings can be large or run the other way.
Answer with one of the outcomes given here: active, inactive

Some solved cases for reference:
compound	assigned-category
COc1ccnc2[nH]cc(C(=O)C(=O)N3CCN(C(=O)c4ccccc4)C[C@@H]3C)c12	inactive
COc1cccc2c1C(=O)c1c(O)c3c(c(O)c1C2=O)C[C@@](O)(C(=O)CO)C[C@@H]3O[C@H]1C[C@H](N)[C@H](OC2CCCCO2)[C@H](C)O1 (stereo partly specified)	active
Cn1cc(C2=C(c3c4n(c5ccccc35)CCC(CN)C4)C(=O)NC2=O)c2ccccc21 (stereo unspecified)	active
CC(C)(O)Cn1c(NC(=O)c2ccc(-c3cn[nH]c3)s2)nc2cc(CN3CCOCC3)ccc21	active

Query: recorded result category for C=CC(=O)N1CCc2ccc(-n3c(=O)ccc4cnc5ccc(-c6cnn(C)c6)cc5c43)cc21 in this test
active

Hello, I am checking results. What call was entered for NC(=O)N1CCC(CC(=O)N2CCC([C@H]3c4ncc(Br)cc4CCc4cc(Cl)cc(Br)c43)CC2)CC1 ?
active

* * *

experimental-details: Quantitative High-Throughput drug screen in 47 multiple myeloma cell lines against the NCATS MIPE library collection: JIM1_ECACC cell viability assay (AID 1918964)
stated-conditions: JIM1 myeloma viability, CellTiter-Glo ATP luminescence, 48 h; series mostly up to 45.8 µM
Description: PI: Beverly A. Mock Ph.D. Laboratory of Cancer Biology and Genetics, Center for Cancer Research, National Cancer Institute, National Institute of Health, Bethesda, Maryland […] 5; Detector; 425V; Luminescence; Viewlux PerkinElmer. […] 1. […] Briefly, the corresponding myeloma cell lines were screened in 1,536-well plates with 500 cells, 5-uL per well for inhibition of cell viability (assessed by measuring ATP levels with CellTiterGlo). […]
Results filed as inconclusive are left out. The source made the active and inactive calls. Calls come from the whole dose curve; as a rule, active = well fitted cell-killing curve with a large enough effect; inconclusive = small, poorly fitted or top-dose-only effect, or effect the other way; inactive = no such curve, though single readings can be large or run the other way.
Assign a class; possible classes are t = active, f = inactive

> print(dat)
                                   compound  assigned.category
1  CN(C)c1ccc2cc(C(=O)N[C@@H](CCCN=C(N)CCl)C(=O)NCc3ccccc3)ccc2c1                  t
2  COc1cc(N2CCC(C(N)=O)CC2)ccc1Nc1nc(N)c(Cl)c(Nc2ccccc2S(=O)(=O)C(C)C)n1                  t
3  Cc1cnc(Nc2ccc(N3CCN(C)CC3)cc2)nc1Nc1cccc(S(=O)(=O)NC(C)(C)C)c1                  t
4  O=C(c1ccc(F)cc1)N1CCC[C@H](c2nc(-c3ccc(F)cc3)no2)C1                  f
5  CC(C)C[C@H](NC(=O)CNC(=O)c1cc(Cl)ccc1Cl)B1OC(=O)CC(CC(=O)O)(C(=O)O)O1 (stereo partly drawn)                  t

GET /call?item= CC(C)(O)CC[C@@H](O)[C@](C)(O)[C@H]1CC[C@@]2(O)C3=CC(=O)[C@@H]4C[C@@H](O)[C@@H](O)C[C@]4(C)[C@@H]3CC[C@]12C returns the recorded outcome of this test.
f

Outcome logged for Cc1ccc(-n2[nH]c(C)c(N=Nc3cccc(-c4cccc(C(=O)O)c4)c3O)c2=O)cc1C in this assay:
t

Which outcome was assigned to O=C(O)C[C@H](O)C[C@H](O)C=Cc1c(C2CC2)nc2ccccc2c1-c1ccc(F)cc1 in this test?
t

* * *

experimental-details: qHTS of pediatric cancer cell lines to identify multiple opportunities for drug repurposing: Primary screen for Rh30 cells (AID 1347107); note: nearly all actives have a fitted effect of over 75% in size
stated-conditions: Rh30 rhabdomyosarcoma viability, CellTiter-Glo luminescence, 48 h; series mostly up to 46 µM
Description: Drug repurposing or repositioning has been offered as a strategy for drug development in oncology programs. […] [1] Shen, M et al. Quantitative high-throughput phenotypic screening of pediatric cancer cell lines identifies multiple opportunities for drug repurposing. […] Cells were assayed in growth media at a density of 500-1,000 cells/well. […] After a 15 min incubation at room temperature, samples were analyzed for luminescence intensity using a ViewLux High-throughput CCD imager equipped with clear filters.
Results filed as inconclusive are left out. Activity calls are given as the source filed them. Calls follow the shape of the dose curve; as a rule, active = well fitted cell-killing curve with a large enough effect; inconclusive = small, poorly fitted or top-dose-only effect; inactive = no such curve, though single readings can be large or run the other way. Non-standard residues stand in square brackets, D forms with d. Residues, ends and D or L forms follow the SMILES beside them. *: point of attachment. Nva = CCC[C@H](N)C(=O)O; Cbz = O=C(OCc1ccccc1)*
Hello, when you answer, please use one of the following outcomes: yes (active), no (inactive)

Solved cases below.
molecule	assigned-category
CCn1c(=O)c2c(nc(C=Cc3ccc(OC)c(OC)c3)n2C)n(CC)c1=O	no
Cc1ccc([N+](=O)[O-])cc1S(=O)(=O)N(C)N=Cc1cnc2ccc(Br)cn12	no
O=C(CN1C(=O)C2(CCCC2)NC[C@H]1c1cc(F)cc(F)c1)Nc1ccc2c(c1)C[C@@]1(C2)C(=O)Nc2ncccc21	no

Kindly provide the recorded test outcome for the following molecule: Cc1cn([C@@H]2O[C@H](CO)[C@@H](O)[C@H]2F)c(=O)[nH]c1=O
no

For Nc1nc(=O)n([C@H]2CSC(CO)O2)cc1F (stereo partly specified) , what call appears in the results of this test?
no

What did this assay record as the result for CCCCCCCN(CC)CCCC(O)c1ccc(NS(C)(=O)=O)cc1 (stereo unspecified) ?
no

Hi team, can someone confirm the assay call for NC(=O)c1cccc(-c2cccc(OC(=O)NC3CCCCC3)c2)c1 ?
no

So what was the verdict on C=C(C)[C@@H]1CC[C@]2(C)CC[C@]3(C)[C@H](CC[C@@H]4[C@@]5(C)CC[C@H](O)C(C)(C)[C@H]5CC[C@]43C)[C@@H]12 in this test?
no

What did this assay record as the result for CC(O)(C#Cc1ccc2c(c1)N(c1nc(N)ncc1Cl)CC2)c1nccs1 (stereo unspecified) ?
no

# outcome recorded in this test, key = O=C(Nc1ccc(Oc2ccnc3[nH]ccc23)c(F)c1)c1cccn(-c2ccc(F)cc2)c1=O
no

For CCC[C@@H](C=O)NC(=O)[C@H](CC(C)C)NC(=O)[C@H](CC(C)C)NC(=O)OCc1ccccc1 (Cbz-Leu-Leu-[Nva]-aldehyde) , what call appears in the results of this test?
yes

Hey, what did the test say about NC(=O)Nc1sc(-c2ccc(F)cc2)cc1C(N)=O ?
yes

// outcome(item) with item = CN1[C@H]2CC(OC(=O)[C@@H](CO)c3ccccc3)C[C@H]1[C@H]1O[C@H]12 (stereo partly specified)
no

Check the results log: what was the call for COc1cc(OC)cc(-c2ccc3ncc4ccc(=O)n(-c5ccc(N6CCNCC6)c(C(F)(F)F)c5)c4c3c2)c1 ?
yes

Recorded call for CCCNS(=O)(=O)Nc1ncnc(OCCOc2ncc(Br)cn2)c1-c1ccc(Br)cc1 ?
no

Look up the recorded call for C=CC[C@@H]1C=C(C)C[C@H](C)C[C@H](OC)[C@H]2O[C@@](O)(C(=O)C(=O)N3CCCC[C@H]3C(=O)O[C@H](C(C)=C[C@@H]3CC[C@H](O)[C@H](OC)C3)[C@@H](C)[C@@H](O)CC1=O)[C@@H](C)C[C@@H]2OC in this test.
no

* * *

experimental-details: qHTS of pediatric cancer cell lines to identify multiple opportunities for drug repurposing: Confirmatory screen for Rh30 cells (AID 1347126); note: nearly all actives have a fitted effect of over 55% in size
stated-conditions: Rh30 rhabdomyosarcoma cell viability; series mostly up to 45.9 µM
Inconclusive results are not listed. The source made the active and inactive calls. Calls come from the whole dose curve; as a rule, active = well fitted cell-killing curve with a large enough effect; inconclusive = small, poorly fitted or top-dose-only effect, or effect the other way; inactive = no such curve, though single readings can be large or run the other way.
Valid outcomes are listed here; reply with one: y (active), n (inactive)

chemical-smiles	assigned-category
O=C(C=CC#Cc1cccc(NS(=O)(=O)c2ccccc2)c1)NO	y
Nc1ncn([C@@H]2O[C@H](CO)[C@@H](O)[C@@H]2O)c(=O)n1	y
O=C(O)c1ccc(Nc2ncc3c(n2)-c2ccc(Cl)cc2C(c2c(F)cccc2F)=NC3)cc1	n
CC(=O)NCC(=O)N1[C@H]2CC[C@H]1c1cc(Nc3ncc(C(F)(F)F)c(NC4CCC4)n3)ccc12	y
Oc1cc(-c2nc(-c3ccccc3)[nH]c2-c2ccncc2)ccc1Cl	y
O=S(=O)(O)CCSSCCS(=O)(=O)O	n
CCS(=O)(=O)Nc1ccc2[nH]c(O)c(C(=Nc3ccc(CN4CCCCC4)cc3)c3ccccc3)c2c1	y
CC(C)N1[N]C(=C2C=c3cc(O)ccc3=N2)c2c(N)ncnc21	y
Cc1cc(Nc2ncc3c(n2)N(C)C(=O)N(c2cc(NC(=O)c4cccc(C(F)(F)F)c4)ccc2C)C3)n(C)n1	n
O=C(NCc1ccccc1)[C@H](Cc1ccccc1)NC(=O)[C@@H]1O[C@@H]1C(=O)NCCc1ccc(O)cc1	n

Per the records of this test, what outcome belongs to CCOc1cc2ncc(C#N)c(Nc3ccc(OCc4ccccn4)c(Cl)c3)c2cc1NC(=O)C=CCN(C)C ?
y

Please let me know the test result on file for CC(C=CC(=O)NO)=C[C@@H](C)C(=O)c1ccc(N(C)C)cc1 .
n

Cited source: PubChem BioAssay (NCATS)
